The following compounds were reported with IC50 values on EED-EZH2 (Homo sapiens (Human)) in different studies.

[
  {
    "compound": "CC(=O)N1CCC=C(c2cnc(NCc3c(F)ccc4c3CCO4)n3cnnc23)CC1",
    "op": "=",
    "IC50 (nM)": 3.3
  },
  {
    "compound": "CS(=O)(=O)c1ccc(-c2cnc(NCc3cccc4occc34)n3cnnc23)cc1",
    "op": "=",
    "IC50 (nM)": 37.4
  },
  {
    "compound": "O=C(NC1CC(=O)N(Cc2ccc(Cl)c(Cl)c2)C1)c1ccccc1O (stereo not shown)",
    "op": ">",
    "IC50 (nM)": 50000
  },
  {
    "compound": "CN1CCN(c2cc(-c3cnc(NCc4cccc5c4CCO5)n4cnnc34)ccn2)CC1",
    "op": "=",
    "IC50 (nM)": 18.5
  },
  {
    "compound": "Cc1ncc(-c2cnc(NCc3c(F)ccc4c3CCO4)n3cncc23)c(C)n1",
    "op": "=",
    "IC50 (nM)": 7.2
  },
  {
    "compound": "OCCn1cc(-c2cnc(NCc3cccc4c3CCO4)n3cnnc23)cn1",
    "op": "=",
    "IC50 (nM)": 37.5
  },
  {
    "compound": "Fc1ccc2c(c1CNc1ncc(-c3ccc(C4CC4)nc3)c3nncn13)CCO2",
    "op": "=",
    "IC50 (nM)": 4
  },
  {
    "compound": "CN(C)c1ncc(-c2cnc(NCc3cccc4c3CCO4)n3cnnc23)cn1",
    "op": "=",
    "IC50 (nM)": 25.7
  },
  {
    "compound": "C#Cc1ncn2c(NCc3c(F)ccc4c3CCO4)ncc(-c3cccnc3C)c12",
    "op": "=",
    "IC50 (nM)": 5.4
  },
  {
    "compound": "Cc1cc(S(C)(=O)=O)ccc1-c1cnc(NCc2c(F)ccc3c2CCO3)n2cnnc12",
    "op": "=",
    "IC50 (nM)": 8.6
  },
  {
    "compound": "Cc1cc(-c2cnc(NCc3cccc4c3CCO4)n3cnnc23)cnc1N1CCOCC1",
    "op": "=",
    "IC50 (nM)": 12.5
  },
  {
    "compound": "Cn1cc(-c2cnc(NCc3c(F)ccc4c3CCO4)n3cnnc23)c(C(F)(F)F)n1",
    "op": "=",
    "IC50 (nM)": 10.7
  },
  {
    "compound": "CC1C=C(c2cnc(NCc3c(F)ccc4c3CCO4)n3cnnc23)CCO1 (stereo not shown)",
    "op": "=",
    "IC50 (nM)": 7.8
  },
  {
    "compound": "CN(C)CCc1cccc(-c2cnc(NCc3cccc4c3CCO4)n3cnnc23)c1",
    "op": "=",
    "IC50 (nM)": 4.5
  },
  {
    "compound": "Fc1ccc2c(c1CNc1ncc(-c3ccncc3)c3cncn13)CCO2",
    "op": "=",
    "IC50 (nM)": 21.2
  },
  {
    "compound": "Fc1ccc2c(c1CNc1ncc(-c3ccnc(N4CCOCC4)c3)c3nncn13)CCO2",
    "op": "=",
    "IC50 (nM)": 15.6
  },
  {
    "compound": "c1cc(CNc2ncc(-c3ccc(N4CCOCC4)nc3)c3nncn23)c2c(c1)OCC2",
    "op": "=",
    "IC50 (nM)": 182
  },
  {
    "compound": "Fc1ccc2c(c1CNc1ncc(-c3ccncc3Cl)c3nncn13)CCO2",
    "op": "=",
    "IC50 (nM)": 5.7
  },
  {
    "compound": "O=C(N[C@@H]1CC(=O)N(Cc2ccccc2C(F)(F)F)C1)c1cc(C(F)(F)F)ccc1O",
    "op": "<",
    "IC50 (nM)": 1000
  },
  {
    "compound": "Cc1cc(C#N)ccc1-c1cnc(NCc2c(F)ccc3c2CCO3)n2cnnc12",
    "op": "=",
    "IC50 (nM)": 5.4
  },
  {
    "compound": "Fc1ccc2c(c1CNc1ncc(-c3cncnc3C(F)F)c3nncn13)CCO2",
    "op": "=",
    "IC50 (nM)": 3.8
  },
  {
    "compound": "O=C(c1ccccc1)N1CC=C(c2cnc(NCc3c(F)ccc4c3CCO4)n3cnnc23)CC1",
    "op": "=",
    "IC50 (nM)": 17.7
  },
  {
    "compound": "Cc1ncc(-c2cnc(NCc3c(F)ccc4c3CCO4)n3cnc([S+]([O-])c4ccccc4)c23)c(C)n1 (stereo not shown)",
    "op": "=",
    "IC50 (nM)": 10.4
  },
  {
    "compound": "CC(C)(C)OC(=O)N1CC=C(c2cnc(NCc3cccc4occc34)n3cnnc23)CC1",
    "op": "=",
    "IC50 (nM)": 115
  },
  {
    "compound": "CS(=O)(=O)c1ccc(-c2cnc(NCc3cccc4c3CCO4)n3cnnc23)cc1",
    "op": "=",
    "IC50 (nM)": 7.9
  },
  {
    "compound": "CCOC(=O)c1ncn2c(NCc3cc(OC)c(F)cc3F)ncc(-c3ccc(S(C)(=O)=O)cc3)c12",
    "op": "=",
    "IC50 (nM)": 16.8
  },
  {
    "compound": "FC1(F)CCN(CCc2ccc(-c3cnc(NCc4cccc5c4CCO5)n4cnnc34)cn2)C1",
    "op": "=",
    "IC50 (nM)": 14
  },
  {
    "compound": "Cc1cc(S(C)(=O)=O)ncc1-c1cnc(NCc2c(F)ccc3c2CCO3)n2cnnc12",
    "op": "=",
    "IC50 (nM)": 2.6
  },
  {
    "compound": "Cc1nc(N2CCOCC2)ncc1-c1cnc(NCc2c(F)ccc3c2CCO3)n2cnc(C#N)c12",
    "op": "=",
    "IC50 (nM)": 2.4
  },
  {
    "compound": "c1cc(CNc2ncc(-c3ccncc3)c3nncn23)c2ccoc2c1",
    "op": "=",
    "IC50 (nM)": 38.6
  },
  {
    "compound": "Cc1cccc(C(=O)NC2CC(=O)N(Cc3ccccc3C(F)(F)F)C2)c1 (stereo not shown)",
    "op": ">",
    "IC50 (nM)": 50000
  },
  {
    "compound": "CS(=O)(=O)c1ccc(-c2cnc(NCc3c(F)ccc4c3CCO4)n3cncc23)cn1",
    "op": "=",
    "IC50 (nM)": 5.5
  }
]
